Test system: Human immunodeficiency virus 1
Experiment: Anti-HIV activity in H9 lymphocytes.
Format: functional, organism-based
Settings: Human immunodeficiency virus 1
assay_endpoint: IC50

INSERT INTO measurements (compound, result) VALUES
  ('CC1(C)Oc2ccc3c(C(F)(F)F)cc(=O)oc3c2[C@@H](OC(=O)C23CCC(C)(C(=O)O2)C3(C)C)[C@H]1OC(=O)C12CCC(C)(C(=O)O1)C2(C)C (stereo partly specified)', '> 145 µM'),
  ('Cc1cc2c(c3oc(=O)ccc13)[C@@H](OC(=O)C13CCC(C)(C(=O)O1)C3(C)C)[C@@H](OC(=O)C13CCC(C)(C(=O)O1)C3(C)C)C(C)(C)O2 (stereo partly specified)', '> 95 µM'),
  ('COc1cc(=O)oc2c3c(ccc12)OC(C)(C)[C@H](OC(=O)C12CCC(C)(C(=O)O1)C2(C)C)[C@@H]3OC(=O)C12CCC(C)(C(=O)O1)C2(C)C (stereo partly specified)', '> 153 µM'),
  ('CC(C)c1cc(=O)oc2c3c(ccc12)OC(C)(C)[C@H](OC(=O)C12CCC(C)(C(=O)O1)C2(C)C)[C@@H]3OC(=O)C12CCC(C)(C(=O)O1)C2(C)C (stereo partly specified)', '> 151 µM'),
  ('CC1(C)Oc2ccc3c(-c4ccccc4)cc(=O)oc3c2[C@@H](OC(=O)C23CCC(C)(C(=O)O2)C3(C)C)[C@H]1OC(=O)C12CCC(C)(C(=O)O1)C2(C)C (stereo partly specified)', '> 143 µM'),
  ('Cc1cc2ccc3c(c2oc1=O)[C@@H](OC(=O)C12CCC(C)(C(=O)O1)C2(C)C)[C@@H](OC(=O)C12CCC(C)(C(=O)O1)C2(C)C)C(C)(C)O3 (stereo partly specified)', '> 113 µM');
